Tested on: Agrobacterium tumefaciens
EXPERIMENT: Antitumor activity against Agrobacterium tumefaciens B6-induced crown-gall tumor formation in potato assessed as tumor induction at 50 ug/disk after 12 days at 27 degC by potato disk assay relative to control
Assay type: functional
The entries below come with measured Activity values attached.
PROPERTY_MEASURED: Activity (%)

{"columns": ["MOLECULE", "PROPERTY_MEASURED", "ASSAY_VALUE"],
 "data": [
  ["C[C@@H]1C[C@H]2O[C@@H]2/C=C\\C=C\\C(=O)Cc2c(Cl)c(O)cc(O)c2C(=O)O1 [RADICICOL]", "Activity", -100],
  ["C[C@H]1CCC[C@H](C[C@H]2Cc3cc(O)cc(O)c3C(=O)O2)O1 [CLADOSPORIN]", "Activity", -90],
  ["CC[C@@H]1CCc2occ(CO)c(=O)c2[C@H]1O [DIPLODIOL]", "Activity", -75]
]}

====

Test system: Agrobacterium tumefaciens
EXPERIMENT: Antitumor activity against Agrobacterium tumefaciens B6-induced crown-gall tumor formation in potato assessed as tumor induction at 25 ug/disk after 12 days at 27 degC by potato disk assay relative to control
Type: functional
Hi, to clarify the labels: Condition met covers Activity from -70% upward, Condition not met covers anything below -70%.

{"columns": ["COMPOUND", "ASSAYED_TARGET", "ASSIGNED_CLASS"],
 "data": [
  ["CO[C@]12c3c(C)cc(O)c4c(=O)occ(c34)C(=O)[C@H]1[C@]13COC(=O)c4c(O)cc(C)c(c41)C(=O)[C@H]2[C@@H]3OC(C)=O", "Agrobacterium tumefaciens", "Condition not met"],
  ["C[C@@H]1C[C@H]2O[C@@H]2/C=C\\C=C\\C(=O)Cc2c(Cl)c(O)cc(O)c2C(=O)O1", "Agrobacterium tumefaciens", "Condition not met"],
  ["CC[C@@H]1CCc2occ(CO)c(=O)c2[C@H]1O", "Agrobacterium tumefaciens", "Condition not met"],
  ["CCCCCC[C@@H](O)[C@H]1CCC2=C(O1)[C@@H](O)CCC2=O", "Agrobacterium tumefaciens", "Condition met"],
  ["CC(=C\\C(=O)O)/C=C(\\C)C[C@H](C)CCCC[C@H]1OC(=O)[C@@H]1CO [ANTIBIOTIC 1233A]", "Agrobacterium tumefaciens", "Condition met"],
  ["CC[C@@]1(O)C(=O)OCc2c1cc1n(c2=O)Cc2cc3ccccc3nc2-1", "Agrobacterium tumefaciens", "Condition not met"],
  ["O=C1C=C2C(=CCOC2O)O1 (stereo not drawn)", "Agrobacterium tumefaciens", "Condition met"]
]}

====

Test system: Escherichia coli
EXPERIMENT: Antibacterial activity against Escherichia coli at 50 to 500 ug/disk by paper-disk-plate technique
Assay type: functional, organism-based
Activity calls are given as the source filed them. The calls are words filed in the database; no cut-off is given here.

{"columns": ["COMPOUND", "ASSAYED_TARGET", "Activity"],
 "data": [
  ["CC[C@@H]1CCc2occ(CO)c(=O)c2[C@H]1O [DIPLODIOL]", "Escherichia coli", "inactive"],
  ["CO[C@]12c3c(C)cc(O)c4c(=O)occ(c34)C(=O)[C@H]1[C@]13COC(=O)c4c(O)cc(C)c(c41)C(=O)[C@H]2[C@@H]3OC(C)=O", "Escherichia coli", "inactive"],
  ["CC[C@H]1C2[C@H]([C@@H](C)c3c[nH]c4ccccc34)NC(=O)[C@@]23C(=O)/C=C\\C(=O)[C@H](O)/C(C)=C\\[C@@H](C)C/C=C/[C@H]3[C@@H]2O[C@]12C (some centres undefined) [CHAETOGLOBOSIN K]", "Escherichia coli", "inactive"],
  ["C[C@@H]1C/C=C/CCCCC(=O)Cc2cc(O)cc(O)c2C(=O)O1 [MONOCILLIN IV]", "Escherichia coli", "inactive"]
]}

====

Tested on: Agrobacterium tumefaciens
EXPERIMENT: Antitumor activity against Agrobacterium tumefaciens B6-induced crown-gall tumor formation in potato assessed as tumor induction at 50 ug/disk after 12 days at 27 degC by potato disk assay relative to control
Format: functional

{"columns": ["COMPOUND", "DISPLAY_UNIT", "Activity"],
 "data": [
  ["CO[C@]12c3c(C)cc(O)c4c(=O)occ(c34)C(=O)[C@H]1[C@]13COC(=O)c4c(O)cc(C)c(c41)C(=O)[C@H]2[C@@H]3OC(C)=O", "%", -94],
  ["C[C@@H]1C/C=C/CCCCC(=O)Cc2cc(O)cc(O)c2C(=O)O1", "%", -75],
  ["CC[C@H]1C2[C@H]([C@@H](C)c3c[nH]c4ccccc34)NC(=O)[C@@]23C(=O)/C=C\\C(=O)[C@H](O)/C(C)=C\\[C@@H](C)C/C=C/[C@H]3[C@@H]2O[C@]12C (stereo partly drawn)", "%", -100]
]}

====

Tested on: Agrobacterium tumefaciens
EXPERIMENT: Antitumor activity against Agrobacterium tumefaciens B6-induced crown-gall tumor formation in potato assessed as tumor induction at 25 ug/disk after 12 days at 27 degC by potato disk assay relative to control
Type: functional
Here the recorded Activity is given for each entry.
PROPERTY_MEASURED: Activity (%)

{"columns": ["COMPOUND", "ASSAYED_TARGET", "PROPERTY_MEASURED", "DISPLAY_UNIT", "ASSAY_VALUE"],
 "data": [
  ["CC[C@H]1C2[C@H]([C@@H](C)c3c[nH]c4ccccc34)NC(=O)[C@@]23C(=O)/C=C\\C(=O)[C@H](O)/C(C)=C\\[C@@H](C)C/C=C/[C@H]3[C@@H]2O[C@]12C (stereo partly drawn) [CHAETOGLOBOSIN K]", "Agrobacterium tumefaciens", "Activity", "%", -94],
  ["O=C(O)/C=C/CCCCCCCCC(=O)O [TRAUMATIC ACID]", "Agrobacterium tumefaciens", "Activity", "%", 28.4],
  ["CCCCCC[C@@H]1O[C@]23O[C@H]1CC[C@H]2[C@@H](O)CC[C@H]3O [KONINGININ A]", "Agrobacterium tumefaciens", "Activity", "%", 75],
  ["C[C@H]1CCC/C=C/[C@@H]2C[C@H](O)C[C@H]2[C@H](O)/C=C/C(=O)O1 [BREFELDIN A]", "Agrobacterium tumefaciens", "Activity", "%", -62],
  ["C[C@H]1CCC[C@H](C[C@H]2Cc3cc(O)cc(O)c3C(=O)O2)O1 [CLADOSPORIN]", "Agrobacterium tumefaciens", "Activity", "%", -79],
  ["C[C@@H]1C/C=C/CCCCC(=O)Cc2cc(O)cc(O)c2C(=O)O1 [MONOCILLIN IV]", "Agrobacterium tumefaciens", "Activity", "%", -78],
  ["CCCCCc1cccc(=O)o1", "Agrobacterium tumefaciens", "Activity", "%", -35.5],
  ["CC1=C2C(=CO[C@H](C)[C@H]2C)C(O)=C(C(=O)O)C1=O [CITRININ]", "Agrobacterium tumefaciens", "Activity", "%", -26]
]}
